# System: OVCAR-4 ovarian
# assay text: NCI tumour cell line growth inhibition, 48 h
Listed here: items and their measured TGI.

>>> recorded_result("COc1cc(-c2nc3sc(C)cn3c2/C=C2\\C(=O)Nc3ccccc32)c(Br)c(OC)c1OC")
"> 100 µM"

Ask | Query (compound): CCOC(=O)C1(C#N)C(=O)c2cc[n+](CC[n+]3ccc4c(c3)C(=O)C(C#N)(C(=O)OCC)C4=O)cc2C1=O (stereo not given) ; field requested: TGI
Reply | > 100 µM

Ask | // lookup TGI for "CC1(C)N=C(N)N=C(N)N1c1ccc(Cl)cc1"
Reply | > 100 µM

Ask | Name the recorded TGI for "COc1ccc(NC2=C(I)C(=O)c3ncccc3C2=O)cc1" .
Reply | 2.35 µM

Ask | Could you tell me which TGI is on file for COC(=O)c1ccccc1CC1Cc2cc3c(cc2C1=O)CCC3 (stereo not given) ?
Reply | > 93.3 µM

----------
# Test system: SW-620 colon
# assay text: NCI tumour cell line growth inhibition, 48 h
value kind: TGI (µM)
The reply should be a number in µM, with the unit left off.

>>> recorded_result("Clc1cc(Cl)c2cc3cccc[n+]3cc2c1Cl")
34.3

As a next step, examine the compound that follows.
Ask | Which measured TGI value corresponds to "COc1cc(/C=C/c2cc(/C=C/c3ccc(O)c(OC)c3)n(C(=O)Nc3ccccc3Cl)n2)ccc1O" ?
Reply | 1.69

----------
# Tested on: MDA-MB-435
value kind: GI50

>>> recorded_result("COC(=O)c1cc2oc(/C=C3/SC(=S)N(N)C3=O)cc2n1Cc1ccccc1")
"6650 nM"
>>> recorded_result("CC(=O)CC/C=C(\\C)[C@H](O)[C@H](C)C(=O)O[C@H]1C[C@H](C)C=C2C=C[C@@]3(C)O[C@@H](O)CC(=O)[C@]3(C)[C@H]21")
"508 nM"

Ask | What reported GI50 corresponds to "COC(=O)[C@]12CC[C@@H](C)[C@H](C)[C@@H]1C1=CC[C@@H]3[C@@]4(C)C[C@@H](OC(=O)/C=C/c5ccccc5)[C@H](O)[C@@](C)(CO)[C@@H]4[C@H](O)C[C@@]3(C)[C@]1(C)CC2" on MDA-MB-435?
Reply | 2440 nM

Ask | # returns recorded GI50 (system: MDA-MB-435) for COc1ccc(C2CC(c3ccc(Nc4ccnc5cc(Cl)ccc45)cc3)=NN2C=O)cc1 (configuration not stated)
Reply | 1720 nM

Ask | What measured GI50 is associated with "CC(C)(c1ccccc1)c1cc(O)c(C(C)(C)c2ccccc2)cc1O" on MDA-MB-435?
Reply | 1430 nM

Ask | Lab note: need GI50 for "C#CC(=O)Nc1cccc2c1cc(C)n2-c1nc2c(c(NCc3ccccc3)n1)CCCC2" on MDA-MB-435, anyone have it?
Reply | 463 nM

Ask | Please tell me: GI50 of "Cn1cc(-c2nc(-c3c[nH]c4ncccc34)cs2)c2ccccc21" , system MDA-MB-435?
Reply | 3840 nM

----------
// values below are reported TGI
# Tested on: PC-3 prostate
# assay text: NCI tumour cell line growth inhibition, 48 h
// note: answer is a bare numeric in µM

>>> recorded_result("COc1ccc2nc3c([N+](=O)[O-])ccc4c3c(c2c1)NCCN4CCN(C)C")
1.86
>>> recorded_result("O=C(NCCCNCCN1C(=O)c2cccc3cc([N+](=O)[O-])cc(c23)C1=O)c1cc(-c2ccccc2)nc2ccccc12")
16.7
>>> recorded_result("COC(=O)c1ccc(/C=C(\\c2ccc([N+](=O)[O-])o2)S(=O)(=O)c2ccc(NC(C)=O)cc2)o1")
29.8

Ask | I would be grateful if you could share the reported TGI for CC(C)(C)C1CCC2c3c([nH]c4ccccc34)C3C(=O)N(c4ccccc4Cl)C(=O)C3C2C1 (centres undefined) .
Reply | 28

Ask | Reported TGI, compound "CC(=O)CC/C=C(\C)[C@H](O)[C@H](C)C(=O)O[C@H]1C[C@H](C)C=C2C=C[C@@]3(C)O[C@@H](O)CC(=O)[C@]3(C)[C@H]21" : ____
Reply | 3.31

Ask | GET /values?readout=TGI&item= "CC(C)(Oc1ccc(Cl)cc1)C(=O)N(C(=O)N1CCCCC1)c1ccccc1"
Reply | 20

----------
# Tested on: SNB-78 CNS
# assay text: NCI tumour cell line growth inhibition, 48 h
Quick reference for TGI among some compounds

The following compounds have reported results that may help.
>>> recorded_result("CC[C@@]1(O)C(=O)OCc2c1cc1n(c2=O)Cc2cc3ccccc3nc2-1")
"> 20.5 µM"
>>> recorded_result("Cc1ccc(S(=O)(=O)N2CCN(C=S)CC2)cc1")
"> 100 µM"
>>> recorded_result("CN(C)CCNC(=O)c1cc(Cl)cc2cc3ccccc3nc12")
"7.56 µM"

Ask | Give TGI (SNB-78 CNS) of the following compound: "CCOc1ccc(/C=C/c2cc(OC)c(OC)c(OC)c2)cc1"
Reply | 0.85 µM

Ask | Give SNB-78 CNS TGI for N#CCC(=O)N/N=C1/C(=O)N(c2cc(Cl)ccc2Cl)C(=O)C(=O)C1c1nc2ccccc2s1 (stereo not drawn)
Reply | > 100 µM

----------
# Tested on: SR leukemia
# assay text: NCI tumour cell line growth inhibition, 48 h
Measured TGI, listed per entry for reference.

Solved cases below.
>>> recorded_result("CCOC(=O)C(CCC(N)=O)(CCC(=O)OC)C(=O)OCC")
"> 100 µM"
>>> recorded_result("CCCCN1C(=O)c2c(Br)sc(Br)c2C1=O")
"85.6 µM"
>>> recorded_result("O=S1(=O)c2ccccc2C(Nc2ccccc2)N1c1ccccc1 (stereo not given)")
"> 100 µM"
>>> recorded_result("N#CC1=C2SCCN2C(=O)C(C#N)C12CCCCC2 (stereo not given)")
"> 100 µM"
>>> recorded_result("Clc1cc(Cl)c(OCCCCCCN2CCNCC2)c(Cl)c1")
"5.64 µM"

Ask | Would you mind telling me what TGI value was observed for "CCOC(=O)Cc1nnc2n(-c3ccccc3)c(=O)c3ccccc3n12" ?
Reply | > 100 µM

Ask | Bench note: what TGI did COC(=O)C1=C(C)N2CCSC2(C)C(C(=O)OC)C1c1cccc(Cl)c1 (stereo not given) show?
Reply | 66.7 µM

Ask | Query: TGI; subject: "O=C(C=P(c1ccccc1)(c1ccccc1)c1ccccc1)CCl"
Reply | 10.5 µM

Ask | Can you look up the measured TGI of "CCOC(=O)c1ccc(C(=O)n2ccnc2)[nH]1" for me?
Reply | > 100 µM

Ask | Tell me the measured TGI of COC(=O)c1ccccc1CC1Cc2cc3c(cc2C1=O)CCC3 (stereo not given) , please.
Reply | > 69 µM

Ask | # query: TGI of entry "O=C(c1ccc(C(F)(F)F)c(Cl)c1)N(Cc1ccc(Cl)cc1)c1ccc(-c2cc(C(F)(F)F)[nH]n2)c(O)c1"
Reply | 2.87 µM

Ask | Query (compound): "CC(C)[C@@](O)(c1ccc2cc(OC(F)F)c(OC(F)F)cc2c1)c1cn[nH]n1" ; field requested: TGI
Reply | 44.7 µM

----------
# Test system: HCC-2998 colon
# assay text: NCI tumour cell line growth inhibition, 48 h; in the data active means GI50 below about 0.43 µM; inactive means the rest
Field 'call' accepts Y = active, N = inactive

Worked examples, 2 molecules total:
>>> assigned_category("COc1cc(N2C(=O)[C@H](c3ccccc3)C2c2ccc(SC)cc2)cc(OC)c1OC (some centres undefined)")
"Y"
>>> assigned_category("Cc1ccc2cccc(OC(=O)Nc3cccc(C(F)(F)F)c3)c2n1")
"N"

Ask | What did the test return for "O=c1cnnc(N/N=C/c2ccccc2O)[nH]1" ?
Reply | N

Ask | Dear all, I need the recorded test outcome for O=C1CC(c2ccccc2)Cc2nc3ccc(Br)cc3cc21 (centres undefined) , thank you.
Reply | N

Ask | Test call, this molecule: "CCN(CC)CC[n+]1ccc2c(C)c3[nH]c4ccc(O)cc4c3c(C)c2c1"
Reply | N

Ask | // outcome(item) with item = "CC(C)[C@@](O)(c1ccc2cc(OC(F)F)c(OC(F)F)cc2c1)c1cn[nH]n1"
Reply | N

Ask | For "NC(=S)N/N=C1\c2ccccc2-c2c(F)c(F)c(F)c(F)c21" , which call appears in the assay record?
Reply | N

Ask | Which outcome was entered for the molecule "CN(C)CCCSc1ccccc1NC1=C(Cl)C(=O)C(Nc2ccccc2SCCCN(C)C)=C(Cl)C1=O" in this test?
Reply | N

Ask | Kindly provide the recorded test outcome for the following molecule: "COc1cc(/C=C2\CCC/C(=C\c3ccc(O)c(OC)c3)C2=O)ccc1O"
Reply | N

----------
# System: SF-539 CNS
# assay text: NCI tumour cell line growth inhibition, 48 h
value kind: log10 of TGI (log10 of the value in µM)
The figures below represent log10 of TGI, where TGI is stated in µM.

Some solved entries appear below for comparison.
>>> recorded_result("C#Cc1cccc(Nc2ncnc3ccc(OCCCCNCCS(C)(=O)=O)cc23)c1")
0.94
>>> recorded_result("CC(=O)OCC1OC(N2C(c3ccccc3)=CC(c3ccco3)C(C#N)=C2S)C(OC(C)=O)C(OC(C)=O)C1OC(C)=O (stereo not given)")
0.73
>>> recorded_result("C=C1C(=O)O[C@H]2[C@H](OC(C)=O)[C@@H](C)CCCC3(C)OC3CCC3(CO3)[C@H](O)C[C@@H]12 (stereo not given in full)")
1.57
>>> recorded_result("CC(C)(Oc1ccc(Cl)cc1)C(=O)N(C(=O)N1CCCCC1)c1ccccc1")
1.40
>>> recorded_result("CC(C)(C)C1CCC2c3c([nH]c4ccccc34)C3C(=O)N(c4ccccc4[N+](=O)[O-])C(=O)C3C2C1 (stereo not given)")
1.79

Ask | Which value of log10 of TGI has been reported for "COc1cc(-c2nc3sc(C)cn3c2/C=C2\C(=O)Nc3ccccc32)c(Br)c(OC)c1OC" in the records?
Reply | 1.58

Ask | Entry "CC(=O)c1cc2c(s1)C(=O)c1sccc1C2=O" : reported log10 of TGI = ?
Reply | -1.46

Ask | What value of log10 of TGI has been recorded for this entry: COc1ccc(CCN(CC(=O)N(CC(N)=O)C2CCC[C@@H]2OCc2ccccc2)C(=O)CN(C(=O)CN(CCc2ccc(Cl)cc2)C(=O)CN(C(=O)CN(C)Cc2ccccc2F)[C@H](C)C2CCCCC2)[C@H](C)C2CCCCC2)cc1OC (stereo not given in full)
Reply | 0.66

Ask | Consider the molecule CCOC(=O)C1(C/C=C/CCl)CCCC1=O (stereo not given) and give its measured log10 of TGI.
Reply | 1.61

Ask | Please give the measured log10 of TGI for this molecule: "COc1ccc(/C=C2\COc3ccc(O)c(O)c3C2=O)c(OC)c1OC"
Reply | 0.84

Ask | Query: log10 of TGI; subject: "NC(=S)N/N=C1\c2ccccc2-c2c(F)c(F)c(F)c(F)c21"
Reply | 1.11
